Biological target: T1, human LAP-TGFB1 Fc fusion (human)
T1 construct: also called human LAP-TGFβ1-Fc; human LAP-TGFβ-Fc isoform 1
T1 sequence (chain, as listed by the source limits assumed): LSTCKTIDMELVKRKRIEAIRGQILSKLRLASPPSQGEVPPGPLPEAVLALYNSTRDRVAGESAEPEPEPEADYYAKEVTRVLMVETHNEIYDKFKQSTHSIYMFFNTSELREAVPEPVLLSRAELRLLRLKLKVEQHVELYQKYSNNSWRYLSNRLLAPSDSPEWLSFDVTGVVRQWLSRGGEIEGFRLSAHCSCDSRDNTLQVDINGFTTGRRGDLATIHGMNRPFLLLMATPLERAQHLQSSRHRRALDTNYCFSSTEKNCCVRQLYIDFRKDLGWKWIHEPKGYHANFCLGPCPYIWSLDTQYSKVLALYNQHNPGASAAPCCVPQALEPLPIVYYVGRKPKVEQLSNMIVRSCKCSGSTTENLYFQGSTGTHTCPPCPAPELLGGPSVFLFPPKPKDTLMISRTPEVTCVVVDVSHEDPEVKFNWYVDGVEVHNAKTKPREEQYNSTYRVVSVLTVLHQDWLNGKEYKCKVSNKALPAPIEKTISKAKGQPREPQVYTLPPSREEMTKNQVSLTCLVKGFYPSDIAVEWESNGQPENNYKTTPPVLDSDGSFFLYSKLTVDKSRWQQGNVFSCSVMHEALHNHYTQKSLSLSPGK
Assay: BLI off-rate screen
Parameter: Binding response. Scope: all listed entries.
Enter your answer as a number in nm; do not include the unit.

- binder: "VH S31Y (70BIT) (Fab, V domains shown) VH: EVQLVQSGAEVKKPGASVKVSCKASGYTFTYYWMHWVRQAPGQGLEWMGRIDPQSGGIKYAQKFQGRATLTVDTSTSTAYMELSRLRSDDTAVYYCARWDYGGYFDVWGQGTLVTVSS VL: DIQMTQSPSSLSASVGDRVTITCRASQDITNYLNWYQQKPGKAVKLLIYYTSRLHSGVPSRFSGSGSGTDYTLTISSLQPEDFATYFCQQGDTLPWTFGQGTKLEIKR"
  Binding response (nm): 0.696
- binder: "VH W33Y (71BIT) (Fab, V domains shown) VH: EVQLVQSGAEVKKPGASVKVSCKASGYTFTSYYMHWVRQAPGQGLEWMGRIDPQSGGIKYAQKFQGRATLTVDTSTSTAYMELSRLRSDDTAVYYCARWDYGGYFDVWGQGTLVTVSS VL: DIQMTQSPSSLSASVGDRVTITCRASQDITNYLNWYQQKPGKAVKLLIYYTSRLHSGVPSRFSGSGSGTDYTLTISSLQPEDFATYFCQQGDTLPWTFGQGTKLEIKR"
  Binding response (nm): 0.77

Proceed to the following item.
Prompt line: Item under review: VL D92Y (57BIT) (Fab, V domains shown) VH: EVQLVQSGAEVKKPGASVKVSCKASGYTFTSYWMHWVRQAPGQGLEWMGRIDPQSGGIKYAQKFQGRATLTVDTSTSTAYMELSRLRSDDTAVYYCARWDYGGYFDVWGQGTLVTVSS VL: DIQMTQSPSSLSASVGDRVTITCRASQDITNYLNWYQQKPGKAVKLLIYYTSRLHSGVPSRFSGSGSGTDYTLTISSLQPEDFATYFCQQGYTLPWTFGQGTKLEIKR . Reported Binding response?
Response line: 0.046
